tested on: CCRIS mutagenicity, Ames/micronucleus/aberration tests; assay: CCRIS mutagenicity studies; details: Test System: AMES SALMONELLA TYPHIMURIUM; Strain/Indicator: TA100; Metabolic Activation: NONE; Method: STANDARD PLATE
The source made the active and inactive calls. How the calls were made is not given here.
Please state which outcome applies, choosing from t = active, f = inactive

Query block: Entry COc1ccc2[nH]c3c(C)cc(N)c(C)c3c2c1 : call = ?
Result block: f

Query block: # fetch the recorded call for [N-]=[N+]=NC[C@H]1O[C@H](O)[C@@H](O)[C@H](O)[C@@H]1O here
Result block: t

Query block: Answer briefly: the call reported for CC(C)CCC[C@@H](C)[C@H]1CC[C@H]2[C@@H]3C[C@@H]4N(N5C(=O)c6ccccc6C5=O)[C@@]45C[C@@H](Cl)CC[C@]5(C)[C@H]3CC[C@]12C (some centres not stated) in this assay.
Result block: f

Query block: Test call for this compound, please: CCc1ccc(/C=C/c2ccc(N)cc2)cc1
Result block: f

Query block: Hey, what did the test say about CC(C)c1cc(-c2ccccc2)cc(C(C)C)c1N ?
Result block: f

Query block: Recorded test call requested for CCCCCCCCCCCCCc1ccccc1
Result block: f

Query block: How was CCc1cccc(NC(=O)c2csc([N+](=O)[O-])c2)c1 classified in this test?
Result block: t

----------
system: CCRIS mutagenicity, Ames/micronucleus/aberration tests; test: CCRIS mutagenicity studies; details: Test System: AMES SALMONELLA TYPHIMURIUM; Strain/Indicator: TA1535; Metabolic Activation: NONE; Method: STANDARD PLATE
Activity calls are given as the source filed them. No rule for the calls is given here.
Choose the fitting class; nothing outside active, inactive is accepted.

Query block: Which result was noted for this compound in the test: O=Cc1ccccc1[N+](=O)[O-]
Result block: inactive

Query block: Assay outcome for O=[N+]([O-])c1ccc(NO)cc1 : what was it?
Result block: active

Query block: How was O=c1cn[nH]c(=O)[nH]1 classified in this test?
Result block: inactive

Query block: Query: recorded result category for CCOS(C)(=O)=O in this test
Result block: active

Query block: Per the assay record, what outcome was assigned to CN(C)c1ccc([C@H]2C[C@@]3(C)[C@@H](CC[C@@]3(O)/C=C\CO)[C@@H]3CCC4=CC(=O)CCC4=C32)cc1 ?
Result block: inactive

Query block: Returns: the outcome recorded for Nc1n[nH]c(N)n1 in this assay.
Result block: inactive

Query block: // param item: COc1cc(N)cc(OC)c1N ; yields the recorded call
Result block: inactive

Query block: Hi, do you know how O=C(O)O came out in this test?
Result block: inactive

Query block: # lookup: test call for N#CC(Cl)Br (centres undefined)
Result block: active

Query block: What was the test verdict on ClCCN(CCCl)c1ccc2ccccc2c1 ?
Result block: active

Query block: Outcome logged for CCC1CCC(CCC(=O)[O-])C1.CCC1CCC(CCC(=O)[O-])CC1.[Cu+2] (centres undefined) in this assay:
Result block: inactive

Query block: Any idea what this test logged for CC(O)Cc1cc(N)cc([N+](=O)[O-])c1N (centres undefined) ?
Result block: inactive

Query block: Could you check what this test reported for COc1ccc(CCC2CO2)cc1 (centres undefined) ?
Result block: active

Query block: // outcome(item) with item = CC(C)=CC1C(C(=O)OCc2coc(Cc3ccccc3)c2)C1(C)C (centres undefined)
Result block: inactive

Query block: Hey, what did the test say about O=C(O)c1cccc2cccnc12 ?
Result block: inactive

Query block: Any idea what this test logged for OC(O)C(Cl)(Cl)Cl ?
Result block: inactive

Query block: Hey, what did the test say about C#CC(OC(=O)NC1CCCCC1)(c1ccccc1)c1ccc(C)c(C)c1 (centres undefined) ?
Result block: active

Query block: Dear colleague, could you share the recorded outcome for O=C1c2c(O)ccc(O)c2C(=O)c2c(NCCNCCO)ccc(NCCNCCO)c21 when you have a moment?
Result block: inactive

Query block: Recorded call for O=C(CCl)Nc1snc2cc(Cl)ccc12 ?
Result block: inactive

Query block: Hey, what did the test say about Cl/C=C/CCl ?
Result block: active

Query block: What did the test return for C1O[C@@H]1[C@@H]1CO1 ?
Result block: active

Query block: Hi, sorry to bother you, what did the test record for Nc1cc(C(F)(F)F)ccc1Cl ?
Result block: inactive

Query block: Fill in: this test's call for COc1cccc2c1cc1c3c(cc4c(c32)OCO4)C(=O)N1 is ___
Result block: inactive

Query block: How was CNC(=O)Oc1cccc2c1OC(C)(C)C2 classified in this test?
Result block: inactive

Query block: Just curious, what result did O=C1c2cccc(O)c2C(=O)c2c(O)cc(CO)cc21 get here?
Result block: inactive

Query block: Which outcome did this test record for the compound CC(C)CC(=O)OCc1cocc2c(C=O)ccc1-2 ?
Result block: inactive

Query block: Write down the call the test reported for this compound. Item: O=S(O)S(=O)(=O)O
Result block: inactive

Query block: What outcome does the record of this test show for N=c1ccc2nc3ccc(N)cc3sc-2c1 ?
Result block: inactive

Query block: What classification did COc1ccc(CC2CO2)cc1 (centres undefined) end up with in this test?
Result block: active

Query block: Could you check what this test reported for CC(C)(C)OC(=O)O/N=C(/C#N)c1ccccc1 ?
Result block: inactive

Query block: Outcome logged for C[n+]1cccc(C(=O)[O-])c1 in this assay:
Result block: inactive

Query block: Outcome logged for O=C(O)Cc1c[nH]c2ccccc12 in this assay:
Result block: inactive

Query block: Hi, sorry to bother you, what did the test record for CCCCCCCCCC/C=C/C1CC(=O)OC1=O (centres undefined) ?
Result block: inactive

Query block: Test call, this compound: C=C(C)C(=O)OCCOCCOC(=O)C(=C)C
Result block: inactive

Query block: What was the test verdict on O=C(O)CN(CCN(CC(=O)O)CC(=O)O)CC(=O)O ?
Result block: inactive

Query block: Write down the call the test reported for this compound. Item: CN(C)CC/C=C1\c2ccccc2COc2ccccc21
Result block: inactive

Query block: Record lookup: outcome of this test for C[C@@H]1C[C@H]2[C@@H]3CCC4=CC(=O)C=C[C@]4(C)[C@@]3(F)[C@@H](O)C[C@]2(C)[C@@]1(O)C(=O)CO ?
Result block: inactive

Query block: For this compound, state the assay outcome: CCCCCCOCCOCCO
Result block: inactive

Query block: Identify the outcome logged in this assay for the compound shown: CC(C)=CCC/C(C)=C/CC/C(C)=C/C(=O)OCC(=O)[C@@]1(O)CC[C@H]2[C@@H]3CCC4=CC(=O)C=C[C@]4(C)[C@H]3[C@@H](O)C[C@@]21C
Result block: inactive

Query block: For O=CC=C(Cl)Cl , which call appears in the assay record?
Result block: active

Query block: Each compound tested received a call. Report the one for Nc1cc2c3ccccc3ccc2c2ccccc12 .
Result block: inactive

Query block: GET /call?item= O=NN(CCCl)C(=O)NC1CCCCC1 returns the recorded outcome of this test.
Result block: active

Query block: What was the test verdict on CC(C)N(C(=O)SC/C(Cl)=C/Cl)C(C)C ?
Result block: inactive

Query block: I would be grateful if you could indicate the recorded call for CCCCCCCCCCCC(=O)OCCS(=O)(=O)O .
Result block: inactive

Query block: Given CCN(CC)c1ccc(N=Nc2ccc([N+](=O)[O-])cc2)cc1 , state the outcome it received in this test.
Result block: inactive

Query block: Tell me the assay call for CCOC(=O)C1OC1c1ccccc1 (centres undefined) please.
Result block: inactive

Query block: Record lookup: outcome of this test for Cc1cccn2c(=O)c(-c3nnn[nH]3)cnc12 ?
Result block: inactive

Query block: Please indicate how the test categorized O=c1c(Cl)c(Cl)cnn1S(=O)(=O)c1ccccc1 .
Result block: inactive

Query block: // return assay outcome for CN1C(=O)CN=C(c2ccccc2)c2cc(Cl)ccc21
Result block: inactive
